Recorded kon for the following binders
target: T1, recombinant soluble PSMA (rsPSMA) (human, UniProt Q04609 44-750); experiment: Biacore, rsPSMA
T1 construct: also called rsPSMA dimer; secreted rsPSMA
T1 sequence (Q04609 44-750): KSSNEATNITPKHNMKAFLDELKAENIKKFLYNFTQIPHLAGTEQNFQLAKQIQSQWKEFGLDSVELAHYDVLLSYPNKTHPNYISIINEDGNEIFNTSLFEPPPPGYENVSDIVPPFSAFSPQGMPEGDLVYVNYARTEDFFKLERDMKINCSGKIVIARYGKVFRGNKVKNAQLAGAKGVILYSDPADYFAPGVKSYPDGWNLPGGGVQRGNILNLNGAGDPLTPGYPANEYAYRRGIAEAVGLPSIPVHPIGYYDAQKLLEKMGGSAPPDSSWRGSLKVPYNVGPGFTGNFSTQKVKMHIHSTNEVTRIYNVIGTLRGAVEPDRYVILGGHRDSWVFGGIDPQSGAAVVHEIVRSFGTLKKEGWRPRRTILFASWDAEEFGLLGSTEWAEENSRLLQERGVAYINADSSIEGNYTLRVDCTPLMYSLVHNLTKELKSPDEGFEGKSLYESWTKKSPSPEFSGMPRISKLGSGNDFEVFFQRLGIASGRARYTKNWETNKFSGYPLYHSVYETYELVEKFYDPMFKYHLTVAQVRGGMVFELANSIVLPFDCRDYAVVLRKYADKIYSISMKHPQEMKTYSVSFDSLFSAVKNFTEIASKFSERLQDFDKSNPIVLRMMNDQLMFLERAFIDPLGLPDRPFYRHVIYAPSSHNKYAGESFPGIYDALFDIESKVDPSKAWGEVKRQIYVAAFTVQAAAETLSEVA
readout-type: kon (M⁻¹ s⁻¹)

* AB-PG1-XG1-006 (antibody, V domains shown, also called XG-006; PRGX1-XG1-006) VH: QVQLVESGGGVVQPGRSLRLSCAASGFAFSRYGMHWVRQAPGKGLEWVAVIWYDGSNKYYADSVKGRFTISRDNSKNTQYLQMNSLRAEDTAVYYCARGGDFLYYYYYGMDVWGQGTTVTVSS VL: DIQMTQSPSSLSASVGDRVTITCRASQGISNYLAWYQQKTGKVPKFLIYEASTLQSGVPSRFSGGGSGTDFTLTISSLQPEDVATYYCQNYNSAPFTFGPGTKVDIK | 130000
* AB-PG1-XG1-077 (antibody, V domains shown, also called PRGX1-XG1-077) VH: QVQLVESGGGVVQPGRSLRLSCAASGFTFISYGMHWVRQAPGKGLEWVAVISYDGSNKYYADSVKGRFTISRDNSKNTLYLQMNSLRAEDTAVYYCARVLVGALYYYNYYGMDVWGQGTTVTVSS VL: DIVMTQTPLSLSVTPGQPASISCKSSQSLLHSDGKTFLYWYLQKPGQPPQLLIYEVSNRFSGVPDRFSGSGSGTDFTLKISRVEAEDVGLYYCMQSIQLPLTFGGGTKVEIK | 60000
* AB-PG1-XG1-026 (antibody, V domains shown, also called XG-026; PRGX1-XG1-026) VH: QVQLVESGGGVVQPGRSLRLSCAASGFTFSNYVMHWVRQAPGKGLEWVAIIWYDGSNKYYADSVKGRFTISRDNSKNTLYLQMNSLRAEDTAVYYCAGGYNWNYEYHYYGMDVWGQGTTVTVSS VL: DIQMTQSPSSLSASVGDRVTITCRASQGITNYLAWFQQKPGKAPKSLIYAASSLQSGVPSKFSGSGSGTDFSLTISSLQPEDFATYYCQQYNSYPITFGQGTRLEIK | 150000
* AB-PG1-XG1-051 (antibody, V domains shown, also called XG-051; PRGX1-XG1-051) VH: QVQLVESGGGVVQPGRSLRLSCAASGFTFSSYGMHWVRQAPGKGLDWVAIIWHDGSNKYYADSVKGRFTISRDNSKKTLYLQMNSLRAEDTAVYYCARAWAYDYGDYEYYFGMDVWGQGTTVTVSS VL: DIQMTQSPSSLSASVGDRVTITCRASQGISHYLAWFQQKPGKAPKSLIYAASSLQSGVPSKFSGSGSGTDFTLTISSLQPEDFATYYCQQYNSFPLTFGGGTKVEIK | 140000
